- Target Of Assay: T1, recombinant human IL-1α (human, UniProt P01583 113-271)
- T1 sequence: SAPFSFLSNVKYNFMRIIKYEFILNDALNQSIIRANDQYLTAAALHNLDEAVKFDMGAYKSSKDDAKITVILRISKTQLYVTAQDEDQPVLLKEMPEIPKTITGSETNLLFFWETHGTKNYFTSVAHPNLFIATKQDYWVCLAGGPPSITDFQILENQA
- Experiment: cell-based or functional assay
Assay Metric: IC50 for Antibody (PM), MRC-5 bioassay (IL-1α-stimulated production of IL-8) (pM)
All answers are understood in pM, so give the number only.

| Binder | Unit Spec | Endpoint Result |
| --- | --- | --- |
| h3D12-362-10/372-15 (antibody, V domains shown) VH: EVQLVQSGAEVKKPGVSVKVSCKASGYTFTTYGMHWVRQAPGQGLEWMGWINTYTGESTYADDFQGRVTFTLDTSTSTAYMELSSLRSEDTAVYFCARGIYYYGSSYAMNYWGQGTTVTVSS VL: DIQMTQSPSSLSASVGDRVTITCRASQDISNMLNWYQQKPGKTPKLLIYYTSRLYPGVPSRFSGSGSGTDYTFTISSLQPEDIATYFCQQGKTLPYAFGQGTKLEIK | pM | 6 |
| h3D12.8 (antibody, V domains shown, also called humanized 3D12 antibody h3D12.8; VH H3D12VH.1A / VL H3D12VK.1C) VH: EIQLVQSGSELKKPGASVKVSCKASGYTFTNYGMNWVRQAPGQDLERMAWINTYTGESTYADDFKGRFVFSLDTSVSTAYLQISSLKAEDTAVYFCARGIYYYGSSYAMDYWGQGTTVTVSS VL: DIQMTQSPSSLSASVGDRVTITCRASQDISNCLNWYQQKPGKTPKLLIYYTSRLHSGVPSRFSGSGSGTDYTFTISSLQPEDIATYFCQQGKTLPYAFGQGTKLEIK | pM | 1950 |

Read the next record carefully.
Input: Field request: IC50 for Antibody (PM), MRC-5 bioassay (IL-1α-stimulated production of IL-8) | item: h3D12.r10 (antibody, V domains shown) VH: EIQLVQSGAEVKKPGASVKVSCKASGYTFAHYGMNWVRQAPGQGLEWMGWINTYTGQSTYADDFKGRFTFTLDTSTSTAYMELSSLRSEDTAVYYCARGIYYFGSNYAMDYWGQGTTVTVSS VL: DIQMTQSPSSLSASVGDRVTITCRASQDISNMLNWYQQKPGKTPKLLIYYTSRLRSGVPSRFSGSGSGTDYTFTISSLQPEDIATYFCQQGKKPPYTFGQGTKLEIK
Output: 0.6
